System: Mycobacterium tuberculosis
assayInfo: Antimycobacterial activity against Mycobacterium tuberculosis H37Rv assessed as reduction in microbial growth incubated for 6 days by broth dilution method
Assay type: functional
assaySetup: 144 h, time 6 day
Hi there, I'd appreciate the recorded MIC for every entry that follows.

Look over these answered cases.
O=C(NCc1cn(Cc2ccc(Oc3ccccc3)c(O)c2)nn1)c1cc2cc(O)ccc2oc1=O: > 4.8 µg/mL
CN(C)S(=O)(=O)c1ccc(NCc2cn(Cc3ccc(Oc4ccccc4)c(O)c3)nn2)c2nonc12: > 52 µg/mL
CCCCCCc1ccc(Oc2ccc(Cn3cc(CNC(=O)c4cc5ccc(N(CC)CC)cc5oc4=O)nn3)cc2)c(O)c1: > 60 µg/mL
COc1ccc2cc(C(=O)NCc3cn(Cc4ccc(Oc5ccccc5)c(O)c4)nn3)c(=O)oc2c1: > 5 µg/mL

Q: Report measured MIC; entry is CCN(CC)c1ccc2cc(C(=O)NCc3cn(Cc4ccc(Oc5ccccc5)c(O)c4)nn3)c(=O)oc2c1
Ans: > 54 µg/mL
